Hello, the source for this data is patent US6890736B1, in case you need it.

# assay_text: Example 1: cell number (hemocytometer) and viability (trypan blue)
# Type: cell-based, Chinese hamster
# assay_setup: Chinese hamster, 31° C., 5 μM decitabine, day 0
result_type: viability at 0 day, 5 μM

>>> measured("Nc1ncn([C@H]2C[C@H](O)[C@@H](CO)O2)c(=O)n1 [decitabine, 5-aza-2′-deoxycytidine]")
"96.1%"

----------
# assay_text: Example 2: cell number and viability
# Format: cell-based, Chinese hamster
# assay_setup: Chinese hamster, cell line 25H9 (CHO cells), 31° C., 10 μM decitabine, day 3
result_type: viability at 3 day, 10 μM (%)

>>> measured("Nc1ncn([C@H]2C[C@H](O)[C@@H](CO)O2)c(=O)n1")
89.3

----------
# assay_text: Example 2: cell number and viability
# Assay type: cell-based, Chinese hamster
# assay_setup: Chinese hamster, CHO cell line 25H9 producing IL-1R-II, 30° C., 20 μM decitabine, day 8
result_type: viability at 8 day, 20 μM (%)

>>> measured("Nc1ncn([C@H]2C[C@H](O)[C@@H](CO)O2)c(=O)n1")
48.4

----------
# assay_text: Example 2: cell number and viability
# Type: cell-based, Chinese hamster
# assay_setup: Chinese hamster, cell line 25H9 (CHO cells), 32° C., 10 μM decitabine, day 6
# Method: About 2×10^6 cells of cell line 25H9 were inoculated into 30 milliliters of serum-free medium and incubated at the temperatures indicated in Table 1 in vented shake flasks. […] IL-1R-II protein titer was determined by ELISA assay. Cell number was determined by counting cells in a hemocytometer. Cell viability was determined by trypan blue staining and counting stained cells in a hemocytometer. […]
result_type: viability at 6 day, 10 μM (%)

>>> measured("Nc1ncn([C@H]2C[C@H](O)[C@@H](CO)O2)c(=O)n1")
71.7

----------
# assay_text: Example 2: cell number and viability
# Format: cell-based, Chinese hamster
# assay_setup: Chinese hamster, CHO cell line 25H9 producing IL-1R-II, 30° C., 10 μM decitabine, day 6
result_type: viability at 6 day, 10 μM (%)

>>> measured("Nc1ncn([C@H]2C[C@H](O)[C@@H](CO)O2)c(=O)n1")
70.3

----------
# assay_text: Example 2: cell number and viability
# Assay type: cell-based, Chinese hamster
# assay_setup: Chinese hamster; 31° C., 0.5 mM butyrate, day 6
result_type: viability at 6 day, 0.5 mM (%)

>>> measured("CCCC(=O)[O-].[Na+] [butyrate, sodium butyrate]")
88.5

----------
# assay_text: Example 2: cell number and viability
# Format: cell-based, Chinese hamster
# assay_setup: Chinese hamster, CHO cell line 25H9 producing IL-1R-II, 30° C., 20 μM decitabine, day 3
result_type: viability at 3 day, 20 μM (%)

>>> measured("Nc1ncn([C@H]2C[C@H](O)[C@@H](CO)O2)c(=O)n1 [decitabine, 5-aza-2′-deoxycytidine]")
93.3

----------
# assay_text: Example 2: cell number and viability
# Assay type: cell-based, Chinese hamster
# assay_setup: Chinese hamster, CHO cell line 25H9 producing IL-1R-II, 30° C., 20 μM decitabine, day 0
result_type: viability at 0 day, 20 μM (%)

>>> measured("Nc1ncn([C@H]2C[C@H](O)[C@@H](CO)O2)c(=O)n1 [decitabine, 5-aza-2′-deoxycytidine]")
94.2

----------
# assay_text: Example 2: cell number and viability
# Type: cell-based, Chinese hamster
# assay_setup: Chinese hamster, cell line 25H9 (CHO cells), 32° C., 10 μM decitabine, day 3
result_type: viability at 3 day, 10 μM (%)

>>> measured("Nc1ncn([C@H]2C[C@H](O)[C@@H](CO)O2)c(=O)n1")
85.4
